test system: Escherichia coli; settings: Concentration 32 ug.mL-1;; ASSAY_TEST Inhibition of Bacterial Growth; detection method Absorption (OD600); MEDIA CAMHB; plate type 384well; NBS; CORNING #3640; time 18 hr
Description: Antibacterial activity against Escherichia coli ATCC 25922 (CO-ADD:GN_001); MIC in CAMBH media using NBS plates, by OD(600)
Measured potencies and affinities stand elsewhere.
Below, each entry is listed with its recorded Inhibition.
Reply numerically in %, unit not repeated.

{"COMPOUND": "Cc1cc(NC(=O)CSc2nc3ccccc3n3cnnc23)ccc1Br", "RECORDED_NUMBER": 3.15}
{"COMPOUND": "COc1ccc(C)cc1NC(=O)Cn1nc2c(N3CCSCC3)nc3ccccc3n2c1=O", "RECORDED_NUMBER": 0.1}
{"COMPOUND": "COc1ccc(CNC(=O)CCc2nnc3ccc(-c4ccccc4)nn23)cc1OC", "RECORDED_NUMBER": -2.82}
{"COMPOUND": "CCc1nnc2c(S(=O)(=O)N(Cc3ccccc3C)c3ccc(C(C)C)cc3)cccn12", "RECORDED_NUMBER": -8.12}
{"COMPOUND": "COc1ccccc1NC(=O)Cn1nc2c3cc(-c4ccc(C)c(C)c4)nn3ccn2c1=O", "RECORDED_NUMBER": 2.41}
{"COMPOUND": "COc1ccc(-c2cc3c4nn(CC(=O)Nc5ccc(C)c(C)c5)c(=O)n4ccn3n2)cc1", "RECORDED_NUMBER": 6.79}
{"COMPOUND": "CSc1cccc(NC(=O)Cn2nc3c(N4CCCC4)nccn3c2=O)c1", "RECORDED_NUMBER": -10.95}
{"COMPOUND": "CCC(C)NC(=O)Cn1nc2n(Cc3cccs3)c(=O)c3sccc3n2c1=O (stereo not given)", "RECORDED_NUMBER": -5.74}
{"COMPOUND": "O=c1n(Cc2nc(-c3ccc(Cl)cc3)no2)nc2ccc(-c3ccccc3)nn12", "RECORDED_NUMBER": -5.36}

Request the reported Inhibition associated with "COc1ccc(-c2cc3c4nnc(SCC(=O)Nc5ccc(C)cc5Cl)n4ccn3n2)cc1"
-3.13
